Test system: MDA-MB-468 breast
Assay: NCI tumour cell line growth inhibition, 48 h; in the data active means GI50 below about 0.43 µM; inactive means the rest
Your response should consist of one outcome taken from active, inactive

Some solved cases for reference:
Compound: CCN(CC)CCn1c(=N)n(CC(O)c2ccc(Cl)c(Cl)c2)c2ccccc21 (stereo unspecified)
Assay target: MDA-MB-468 breast
Group label: inactive
--
Compound: C=C1C(=O)OC(CCCCCCCC)C1C(=O)O (stereo unspecified)
Assay target: MDA-MB-468 breast
Group label: inactive

[Q] So what was the verdict on CC[C@]1(O)C[C@@H]2CN(Cc3c([nH]c4ccccc34)[C@@](C(=O)OC)(c3cc4c(cc3OC)N(C)[C@H]3[C@@](O)(C(=O)OC)[C@H](OC(C)=O)[C@]5(CC)[C@@H]6C[C@@H]6CN6CC[C@]43[C@@H]65)C2)C1 in this test?
[A] active

[Q] So what was the verdict on CCCCc1ccc2nc(NC(=O)OC)[nH]c2c1 in this test?
[A] active

[Q] So what was the verdict on COc1cc(-c2cc(-c3ccc(N(C)C)cc3)nc(N3CCC(O)CC3)c2C#N)cc(OC)c1OC in this test?
[A] inactive

[Q] So what was the verdict on COc1ccc(C(=O)c2cc3c(N)c(C(=O)Nc4cccc(Cl)c4)sc3nc2C)cc1 in this test?
[A] inactive
